Biological target: T1, human TNF-alpha (human, UniProt P01375 77-233)
T1 construct: Immobilised on a CM5 chip or coated on ELISA plates
T1 sequence (P01375 77-233 limits assumed): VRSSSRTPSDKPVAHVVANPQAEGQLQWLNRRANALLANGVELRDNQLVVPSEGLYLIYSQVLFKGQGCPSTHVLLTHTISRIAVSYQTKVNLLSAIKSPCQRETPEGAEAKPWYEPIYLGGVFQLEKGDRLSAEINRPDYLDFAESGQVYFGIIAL
Experiment: Biacore (SPR)
measurement-kind: Kd (nM)

{"columns": ["binder", "recorded-measurement"],
 "data": [
  ["VL18-3L-VL11 DI #5 (other, also called Variant 5) ELVLTQQPASVEAAPGGTVTIKCQASQSISSYLAWYQQKPGHPPKLLIYKASTLASGVSSRFSGSGSGTEFTLTISDLKSADAATYYCQSTYLGGTYVGGAFGGGTELEIKSGGGGSGGGGSGGGGSSGELVMTQQPASVEAAPGGTVTIKCQASQSISSYLAWYQQKPGQPPKLLIYRASTLASGVSSRFSGSGSGTEFTLTISDLKSADAATYYCQSTYVNRGSVAAFGGGTKVVVKYPYDVPDYA", 0.8]
]}

These measurements were taken from patent US20150037349A1.
